The following molecules are shown together with reported Dmax values.
# Measurement Target: Cbl-b (Homo sapiens)
# Construct: Cbl-b-HiBit KI Jurkat Cells were purchased from Promega; host or cells: Cbl-b-HiBiT knock-in Jurkat cells
# Sequence (Q13191 whole entry): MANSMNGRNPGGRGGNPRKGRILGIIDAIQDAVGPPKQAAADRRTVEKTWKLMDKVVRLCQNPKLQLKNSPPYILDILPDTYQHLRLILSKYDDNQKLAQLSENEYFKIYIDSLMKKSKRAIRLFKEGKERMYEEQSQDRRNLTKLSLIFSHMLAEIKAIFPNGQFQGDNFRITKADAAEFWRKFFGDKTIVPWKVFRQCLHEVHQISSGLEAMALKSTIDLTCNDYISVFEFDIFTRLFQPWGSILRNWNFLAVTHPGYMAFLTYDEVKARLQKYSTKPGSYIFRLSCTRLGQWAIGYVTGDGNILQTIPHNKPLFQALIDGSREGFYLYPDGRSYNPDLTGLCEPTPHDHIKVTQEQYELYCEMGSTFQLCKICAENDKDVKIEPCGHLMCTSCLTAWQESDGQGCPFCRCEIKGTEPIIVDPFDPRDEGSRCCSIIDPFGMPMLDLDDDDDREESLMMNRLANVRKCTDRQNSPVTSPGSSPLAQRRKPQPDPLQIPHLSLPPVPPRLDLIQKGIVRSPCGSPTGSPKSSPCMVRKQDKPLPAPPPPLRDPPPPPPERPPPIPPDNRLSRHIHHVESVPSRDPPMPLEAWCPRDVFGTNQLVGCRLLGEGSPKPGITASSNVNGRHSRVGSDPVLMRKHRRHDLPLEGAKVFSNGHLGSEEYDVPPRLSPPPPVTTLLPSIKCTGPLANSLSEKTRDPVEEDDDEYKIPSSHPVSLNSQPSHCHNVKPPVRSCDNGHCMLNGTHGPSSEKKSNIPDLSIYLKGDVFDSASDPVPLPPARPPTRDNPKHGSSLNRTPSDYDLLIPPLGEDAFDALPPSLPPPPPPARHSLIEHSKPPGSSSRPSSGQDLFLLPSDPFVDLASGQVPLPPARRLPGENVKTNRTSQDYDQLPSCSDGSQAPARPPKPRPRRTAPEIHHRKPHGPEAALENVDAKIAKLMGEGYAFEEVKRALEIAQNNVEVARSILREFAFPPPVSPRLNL
# Method Summary: Cbl-b Degradation Method B (Nano-Glo HiBiT lytic detection)
# Type: cell-based
# Setup Conditions: Cbl-b-HiBit KI Jurkat Cells, incubated at least 6-24 hours; maximum degradation observed; read-out: Cbl-b Degredation Method B Dmax (%)

Cn1cnnc1C[C@]1(c2cccc(N3Cc4c(cc(N5CC6(CCN(CC7CCN(c8ccc9c(c8)C(=O)N(C8CCC(=O)NC8=O)C9=O)CC7)CC6)C5)cc4C(F)(F)F)C3=O)c2)C[C@@H](C#N)C1 (some centres unmarked) [Example 137] ... 35 to 70%

# next molecule below
Look up Dmax: Cn1cnnc1CC(C)(C)c1cccc(N2Cc3c(cc(CN4CCC[C@H](CN5CCN(C[C@H]6CC[C@@H](OC7CCN(c8ccc9c(c8F)CN(C8CCC(=O)NC8=O)C9=O)CC7)CC6)CC5)C4)cc3C(F)(F)F)C2=O)c1 (some centres unmarked) [Example 164] > 70%
